- tgt: HLA-A*30:01
- assay-overview: IEDB peptide-MHC binding, purified MHC/competitive/fluorescence; filed as Kd, often an IC50 or EC50 that approximates it; bounds were set here for any values at or beyond the usual limits of such assays
- stated-conditions: source organism: Giardia lamblia ATCC 50803
measured-quantity: Kd (µM)
Your answer should be a plain number; it is taken to be in µM.

get_value(item= FMKVKFEAL , readout=Kd) returns 4.26

----------
- tgt: HLA-B*07:02
- assay-overview: IEDB peptide-MHC binding, purified MHC/direct/fluorescence; filed as Kd, often an IC50 or EC50 that approximates it; bounds were set here for any values at or beyond the usual limits of such assays
- stated-conditions: source organism: Yersinia pestis
Kd listing for selected sequences.

YGLGSTPLY ... ≥ 20 µM

get_value(item= QWSPGPGRL , readout=Kd) returns ≥ 20 µM

----------
pKd listing for selected sequences.
- tgt: HLA-A*01:01
- assay-overview: IEDB peptide-MHC binding, purified MHC/direct/fluorescence; filed as Kd, often an IC50 or EC50 that approximates it; bounds were set here for any values at or beyond the usual limits of such assays
- stated-conditions: source organism: Vibrio vulnificus
As a rule, pKd stands for the negative log10 of the concentration, concentration in M.

STDTRHIPQ ... 5.36

get_value(item= IMDEPTSSL , readout=pKd) returns 4.84

----------
- tgt: HLA-A*24:03
- assay-overview: IEDB peptide-MHC binding, purified MHC/direct/fluorescence; filed as Kd, often an IC50 or EC50 that approximates it; bounds were set here for any values at or beyond the usual limits of such assays
- stated-conditions: source organism: Reston ebolavirus
pKd: −log10 of the molar value.
measured-quantity: pKd

The recorded pKd with HLA-A*24:03 for ITDEINQIK was ≤ 4.70

----------
- tgt: HLA-B*27:03
- assay-overview: IEDB peptide-MHC binding, purified MHC/competitive/fluorescence; filed as Kd, often an IC50 or EC50 that approximates it; bounds were set here for any values at or beyond the usual limits of such assays
- stated-conditions: source organism: Coxiella burnetii RSA 331
pKd: −log10 of the molar value.
measured-quantity: pKd

get_value(item= HMNKLPLAK , readout=pKd) returns ≤ 4.70

----------
- tgt: HLA-B*51:01
- assay-overview: IEDB peptide-MHC binding, purified MHC/direct/fluorescence; filed as Kd, often an IC50 or EC50 that approximates it; bounds were set here for any values at or beyond the usual limits of such assays
- stated-conditions: source organism: Listeria monocytogenes serotype 4b str. H7858
pKd: −log10 of the molar value.
measured-quantity: pKd

get_value(item= FRDEAGAIL , readout=pKd) returns ≤ 4.70

----------
- tgt: HLA-B*58:01
- assay-overview: IEDB peptide-MHC binding, purified MHC/direct/fluorescence; filed as Kd, often an IC50 or EC50 that approximates it; bounds were set here for any values at or beyond the usual limits of such assays
- stated-conditions: source organism: West Nile virus
measured-quantity: Kd

get_value(item= LYAVTTAVL , readout=Kd) returns ≥ 20 µM

----------
pKd listing for selected sequences.
- tgt: HLA-A*01:01
- assay-overview: IEDB peptide-MHC binding, purified MHC/competitive/radioactivity; filed as Kd, often an IC50 or EC50 that approximates it; bounds were set here for any values at or beyond the usual limits of such assays
- stated-conditions: source organism: Dengue virus 1 Brazil/97-11/1997
As a rule, pKd stands for the negative log10 of the concentration, concentration in M.

Use these answered entries as a reference point.
LSKSEFNTY ... 5.56
CIAVGMVTLY ... 5.86
VTAKWLWGFL ... 4.75
FTNMEVQLI ... 5.23

# ---- query sequence ----
get_value(item= FTMAHRKPTY , readout=pKd) returns 5.04
